system: Rituximab-coated Raji cells; assay: ADCC assay: NK cell specific lysis of Rituximab-coated Raji cells; assay type: cell-based, human; settings: Homo sapiens, Raji, IL-12; E:T=10:1
observedProperty: EC50
Remember to follow the number with its unit.

May I ask what EC50 has been recorded for Nc1cccc2c1CN(C1CCC(=O)NC1=O)C2=O (stereo not shown) [lenalidomide] ?
140 nM

----------
test system: NK cells; assay: NK IgG-induced IFN-γ assay; format: cell-based, human; conditions: Homo sapiens, immobilized IgG + IL-2; read-out: EC50 of enhancement of IFN-γ production
observedProperty: EC50 (nM)
Form entry: value (nM) — number only.

Which EC50 is reported for this compound? Nc1cccc2c1CN(C1CCC(=O)NC1=O)C2=O (stereo not shown) [lenalidomide]
90
